Data origin: ChEMBL document CHEMBL1155048

IC50 listing for selected molecules.
Study system: Cathepsin B (Homo sapiens, UniProt P07858)
Assay summary: Inhibition of human recombinant cathepsin B
The response must be a number in µM with no trailing unit.

Write down the reported IC50 of CC(C)C(Nc1cccc(C(F)(F)F)c1)C(=O)N1CCCCN1C#N (stereo not drawn) , test system: Cathepsin B (Homo sapiens, UniProt P07858).
0.023

###

Study system: Cathepsin K (Homo sapiens, UniProt P43235)
Sequence (P43235 whole entry): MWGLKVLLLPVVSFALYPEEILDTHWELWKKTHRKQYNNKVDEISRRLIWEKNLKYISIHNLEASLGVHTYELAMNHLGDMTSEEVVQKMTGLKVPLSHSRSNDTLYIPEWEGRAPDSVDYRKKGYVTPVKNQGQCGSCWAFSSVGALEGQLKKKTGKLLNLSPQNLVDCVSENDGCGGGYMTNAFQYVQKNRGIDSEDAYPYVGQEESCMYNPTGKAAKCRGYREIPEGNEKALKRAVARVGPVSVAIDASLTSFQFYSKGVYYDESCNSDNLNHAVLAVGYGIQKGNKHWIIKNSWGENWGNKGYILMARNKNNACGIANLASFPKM
Assay summary: Inhibition of human recombinant cathepsin K
Observation type: pIC50
Quick note: pIC50 means taking -log10 of the concentration in moles per liter.

CC(C)C(Nc1cccc(C#N)c1)C(=O)N1CCCCN1C#N (stereo not drawn) ... 8.40
CC(C)C(NC(=O)OCc1ccccc1)C(=O)N1CCCCN1C#N (stereo not drawn) ... 9.00
CC(C)C(Nc1cccc(Cl)c1)C(=O)N1CCCCN1C#N (stereo not drawn) ... 7.96
CC(C)C(Nc1ccc(Cl)cc1)C(=O)N1CCCCN1C#N (stereo not drawn) ... 7.62

Here's the next entry for you.
Write down the reported pIC50 of Cc1cccc(NC(C(=O)N2CCCCN2C#N)C(C)C)c1 (stereo not drawn) , test system: Cathepsin K (Homo sapiens, UniProt P43235).
8.22

###

Study system: Procathepsin L (Homo sapiens, UniProt P07711)
Sequence (P07711 whole entry): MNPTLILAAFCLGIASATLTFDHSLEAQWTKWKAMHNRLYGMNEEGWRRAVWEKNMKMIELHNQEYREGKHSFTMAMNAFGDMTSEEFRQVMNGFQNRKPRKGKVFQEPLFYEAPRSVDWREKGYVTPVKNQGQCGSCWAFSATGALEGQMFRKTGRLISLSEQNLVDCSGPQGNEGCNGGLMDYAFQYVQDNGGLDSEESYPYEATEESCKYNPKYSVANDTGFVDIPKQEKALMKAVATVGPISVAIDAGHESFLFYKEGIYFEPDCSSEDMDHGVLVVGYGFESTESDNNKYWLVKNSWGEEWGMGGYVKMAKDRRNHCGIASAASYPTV
Assay summary: Inhibition of human recombinant cathepsin L
Observation type: log10(IC50) (log10 of the value in nM)
In our notation, the value equals log10 of IC50 in nM.

Consider the worked cases shown below.
CC(C)C(NC(=O)OCc1ccccc1)C(=O)N1CCCCN1C#N (stereo not drawn) ... 2.16
CC(C)C(Nc1cccc(C(F)(F)F)c1)C(=O)N1CCCCN1C#N (stereo not drawn) ... 1.68
CC(C)C(Nc1ccc(Cl)cc1)C(=O)N1CCCCN1C#N (stereo not drawn) ... 2.79
Cc1cccc(NC(C(=O)N2CCCCN2C#N)C(C)C)c1 (stereo not drawn) ... 2.55
CC(C)C(NC(=O)OC(C)(C)C)C(=O)N1CCCCN1C#N (stereo not drawn) ... 2.11

Give its log10(IC50) value. Item: CC(C)C(Nc1cccc(Cl)c1)C(=O)N1CCCCN1C#N (stereo not drawn)
2.38

Give its log10(IC50) value. Item: CC(C)C(Nc1ccccc1)C(=O)N1CCCCN1C#N (stereo not drawn)
2.80

Give its log10(IC50) value. Item: CC(C)C(Nc1cccc(C#N)c1)C(=O)N1CCCCN1C#N (stereo not drawn)
2.86

###

Study system: Cathepsin B (Homo sapiens, UniProt P07858)
Assay summary: Inhibition of human recombinant cathepsin B
pIC50 listing for selected molecules.
Quick note: pIC50 means taking -log10 of the concentration in moles per liter.

Consider the worked cases shown below.
CC(C)C(NC(=O)OCc1ccccc1)C(=O)N1CCCCN1C#N (configuration not stated) ... 7.96
CC(C)C(Nc1cccc(C#N)c1)C(=O)N1CCCCN1C#N (configuration not stated) ... 7.40

Write down the reported pIC50 of CC(C)C(Nc1ccc(Cl)cc1)C(=O)N1CCCCN1C#N (configuration not stated) , test system: Cathepsin B (Homo sapiens, UniProt P07858).
6.96

Write down the reported pIC50 of Cc1cccc(NC(C(=O)N2CCCCN2C#N)C(C)C)c1 (configuration not stated) , test system: Cathepsin B (Homo sapiens, UniProt P07858).
7.49

Write down the reported pIC50 of CC(C)C(NC(=O)OC(C)(C)C)C(=O)N1CCCCN1C#N (configuration not stated) , test system: Cathepsin B (Homo sapiens, UniProt P07858).
7.42

Write down the reported pIC50 of CC(C)C(Nc1cccc(Cl)c1)C(=O)N1CCCCN1C#N (configuration not stated) , test system: Cathepsin B (Homo sapiens, UniProt P07858).
7.49

Write down the reported pIC50 of CC(C)C(Nc1ccccc1)C(=O)N1CCCCN1C#N (configuration not stated) , test system: Cathepsin B (Homo sapiens, UniProt P07858).
7.28
